Each recorded value in this set is attributed to ChEMBL document CHEMBL1146289.

# PROTOCOL_NOTES: Cmax in rat at 3 mg/kg, po
# Type: ADME, organism-based
# Design: dose 3 mg/kg, route oral
# CONDITION_INFO: in vivo
OUTCOME_MEASURE: Cmax (nM)

Example entries begin here.
CC(=O)Nc1cc(C(=O)O)cc(-n2c(C)ccc2-c2cc(Br)ccc2OCc2ccc(F)cc2F)c1 1410
CC(=O)Nc1cc(C(=O)O)cc(-n2c(C)ccc2-c2cc(Cl)ccc2OCc2ccc(F)cc2)c1 2080
Cc1ccc(-c2cc(Cl)ccc2OCc2ccc(F)cc2F)n1-c1cc(C(=O)O)ccc1F 230
Cc1ccc(-c2cc(Br)ccc2OCc2ccc(F)cc2F)n1-c1cc(N)cc(C(=O)O)c1 50

I: CC(=O)Nc1cc(C(=O)O)cc(-n2c(C)ccc2-c2cc(F)ccc2OCc2ccc(F)cc2)c1
II: CC(=O)Nc1cc(C(=O)O)cc(-n2c(C)ccc2-c2cc(C(F)(F)F)ccc2OCc2ccccc2)c1
Asked: Would you mind telling me which has the lower recorded Cmax between I and II ? Answer by stating the label of the chosen item.
Given back: II
(II: 20 nM, I: 2950 nM)

----------
# STUDY_TARGET: Cytochrome P450 2C19 (Homo sapiens, UniProt P33261)
# Sequence (P33261 whole entry): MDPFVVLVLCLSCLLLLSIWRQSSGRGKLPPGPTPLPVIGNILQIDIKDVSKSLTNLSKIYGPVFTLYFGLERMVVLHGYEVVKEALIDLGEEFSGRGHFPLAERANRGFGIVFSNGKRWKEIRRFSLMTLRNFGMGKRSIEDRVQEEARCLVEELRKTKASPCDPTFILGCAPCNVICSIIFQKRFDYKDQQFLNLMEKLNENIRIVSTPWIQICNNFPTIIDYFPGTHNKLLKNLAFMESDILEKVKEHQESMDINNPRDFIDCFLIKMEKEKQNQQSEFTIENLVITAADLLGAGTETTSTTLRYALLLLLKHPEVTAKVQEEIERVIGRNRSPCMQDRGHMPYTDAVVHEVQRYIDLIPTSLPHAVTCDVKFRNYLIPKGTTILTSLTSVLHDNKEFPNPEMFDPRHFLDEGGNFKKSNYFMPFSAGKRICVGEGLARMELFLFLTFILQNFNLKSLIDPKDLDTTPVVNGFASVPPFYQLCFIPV
pIC50: −log10 of the molar value.
OUTCOME_MEASURE: pIC50

Form field, pIC50 with Cytochrome P450 2C19 (Homo sapiens, UniProt P33261), item CC(=O)Nc1cc(C(=O)O)cc(-n2c(C)ccc2-c2cc(Br)ccc2OCc2ccc(F)cc2F)c1 : ≤ 4.74

----------
# STUDY_TARGET: UniProtKB P34995
# PROTOCOL_NOTES: Displacement of [3H]PGE2 from human recombinant EP1 receptor expressed in CHO cell membranes
OUTCOME_MEASURE: IC50 (nM)

1: Cc1ccc(-c2cc(Cl)ccc2OCc2ccc(F)cc2F)n1-c1cc(C(=O)O)ccc1Cl
2: CC(=O)N(C)c1cc(C(=O)O)cc(-n2c(C)ccc2-c2cc(Br)ccc2OCc2ccc(F)cc2F)c1
3: Cc1ccc(-c2cc(Cl)ccc2OCc2ccc(F)cc2F)n1-c1cc(Br)cc(C(=O)O)c1
4: Cc1ccc(-c2cc(Br)ccc2OCc2ccc(F)cc2F)n1-c1cc(C(=O)O)cc(C(F)(F)F)c1
Asked: List by increasing IC50. Give your ranking as a list of the labels in the requested order.
Given back: 2, 3, 4, 1

----------
# STUDY_TARGET: Prostaglandin E2 receptor EP3 subtype (Homo sapiens)
# Sequence (P43115 whole entry): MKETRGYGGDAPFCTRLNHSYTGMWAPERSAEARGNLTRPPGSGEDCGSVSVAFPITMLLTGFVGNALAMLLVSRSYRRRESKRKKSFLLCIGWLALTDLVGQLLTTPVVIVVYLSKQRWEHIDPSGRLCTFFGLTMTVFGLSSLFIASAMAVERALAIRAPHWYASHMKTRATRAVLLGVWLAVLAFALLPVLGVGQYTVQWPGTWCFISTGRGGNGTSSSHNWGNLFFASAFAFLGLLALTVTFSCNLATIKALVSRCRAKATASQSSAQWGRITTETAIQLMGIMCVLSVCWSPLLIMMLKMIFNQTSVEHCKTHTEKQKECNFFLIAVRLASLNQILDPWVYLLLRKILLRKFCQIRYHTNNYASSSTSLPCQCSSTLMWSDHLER
# PROTOCOL_NOTES: Inhibition of EP3 receptor expressed in CHO cells assessed as calcium mobilization by FLIPR assay
OUTCOME_MEASURE: Ki (nM)
Expressed in nM, but write only the number.

The compound CC(=O)Nc1cc(C(=O)O)cc(-n2c(C)ccc2-c2cc(Br)ccc2OCc2ccc(F)cc2F)c1 showed Ki equal to 501

----------
# STUDY_TARGET: Prostaglandin E2 receptor EP1 subtype (Homo sapiens, UniProt P34995)
# Sequence (P34995 whole entry): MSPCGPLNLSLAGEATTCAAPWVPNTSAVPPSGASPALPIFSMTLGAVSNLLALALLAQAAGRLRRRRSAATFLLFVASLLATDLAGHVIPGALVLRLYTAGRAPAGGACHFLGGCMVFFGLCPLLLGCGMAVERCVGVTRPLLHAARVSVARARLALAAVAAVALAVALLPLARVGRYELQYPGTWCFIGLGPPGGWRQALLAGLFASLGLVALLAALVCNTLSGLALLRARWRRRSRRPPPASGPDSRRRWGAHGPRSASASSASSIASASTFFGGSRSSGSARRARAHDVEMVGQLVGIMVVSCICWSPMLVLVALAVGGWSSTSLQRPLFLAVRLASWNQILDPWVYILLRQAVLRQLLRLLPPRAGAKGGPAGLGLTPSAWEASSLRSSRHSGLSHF
# PROTOCOL_NOTES: Displacement of [3H]PGE2 from human recombinant EP1 receptor expressed in CHO cell membranes
OUTCOME_MEASURE: IC50 (nM)

Example entries begin here.
Cc1ccc(-c2cc(Br)ccc2OCc2ccc(F)cc2F)n1-c1cc(C(=O)O)cc(N2CCCCC2=O)c1 1.26
Cc1ccc(-c2cc(C(F)(F)F)ccc2OCc2ccccc2)n1-c1cc(C(=O)O)ccc1F 6.31
Cc1ccc(-c2cc(Cl)ccc2OCc2ccccc2)n1-c1cc(N)cc(C(=O)O)c1 3.98
Cc1ccc(-c2cc(Cl)ccc2OCc2ccccc2)n1-c1cc(C(=O)O)cc(N2CCCS2(=O)=O)c1 5.01
Cc1ccc(-c2cc(Cl)ccc2OCc2ccc(F)cc2F)n1-c1cc(Cl)cc(C(=O)O)c1 3.98

1: CC(=O)Nc1cc(C(=O)O)cc(-n2c(C)ccc2-c2cc(Cl)ccc2OCc2ccc(F)cc2)c1
2: Cc1ccc(-c2cc(Cl)ccc2OCc2ccc(F)cc2)n1-c1cc(NS(C)(=O)=O)cc(C(=O)O)c1
Asked: Would you mind telling me which has the lower recorded IC50 between 1 and 2 ? Answer by stating the label of the chosen item.
Given back: 2
(2: 1.58 nM, 1: 2.51 nM)

1: CC(=O)Nc1cc(C(=O)O)cc(-n2c(C)ccc2-c2cc(Br)ccc2OCc2ccc(F)cc2)c1
2: CCOc1ccc(C(=O)O)cc1-n1c(C)ccc1-c1cc(Cl)ccc1OCc1ccccc1
Asked: Would you mind telling me which has the lower recorded IC50 between 1 and 2 ? Answer by stating the label of the chosen item.
Given back: 1
(1: 0.794 nM, 2: 126 nM)

----------
# STUDY_TARGET: UniProt:P34995
# Sequence (P34995 whole entry): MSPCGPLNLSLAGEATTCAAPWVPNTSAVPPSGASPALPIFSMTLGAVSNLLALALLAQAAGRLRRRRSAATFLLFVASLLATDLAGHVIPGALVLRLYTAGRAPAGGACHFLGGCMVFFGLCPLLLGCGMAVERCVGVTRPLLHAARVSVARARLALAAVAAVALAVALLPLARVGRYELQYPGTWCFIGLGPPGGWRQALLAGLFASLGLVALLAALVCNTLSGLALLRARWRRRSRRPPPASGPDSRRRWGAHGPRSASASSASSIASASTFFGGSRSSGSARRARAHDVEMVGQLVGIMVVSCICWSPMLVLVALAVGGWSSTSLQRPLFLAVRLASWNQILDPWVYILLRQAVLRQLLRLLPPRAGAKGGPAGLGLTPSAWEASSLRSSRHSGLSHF
# PROTOCOL_NOTES: Inhibition of EP1 receptor expressed in CHO cells assessed as calcium mobilization by FLIPR assay
OUTCOME_MEASURE: pKi
Formally, pKi is defined as -log10 of the concentration c, with c in mol/L.

Form field, pKi with UniProt:P34995, item CC(=O)Nc1cc(C(=O)O)cc(-n2c(C)ccc2-c2cc(Br)ccc2OCc2ccc(F)cc2F)c1 : 10.00

----------
# Test system: Rattus norvegicus
# PROTOCOL_NOTES: AUC (0-t) in rat at 3 mg/kg, po
# Type: ADME, organism-based, Plasma
# Design: dose 3 mg/kg, route oral
# CONDITION_INFO: in vivo
OUTCOME_MEASURE: AUC (kg·min/L)

P: CC(=O)Nc1cc(C(=O)O)cc(-n2c(C)ccc2-c2cc(Br)ccc2OCc2ccc(F)cc2F)c1
Q: Cc1ccc(-c2cc(Cl)ccc2OCc2ccc(F)cc2F)n1-c1cc(C(=O)O)ccc1F
Asked: // compare measured AUC, left P , right Q , return larger Answer by stating the label of the chosen item.
Given back: P

----------
# STUDY_TARGET: Prostaglandin E2 receptor EP1 subtype (Homo sapiens)
# Sequence (P34995 whole entry): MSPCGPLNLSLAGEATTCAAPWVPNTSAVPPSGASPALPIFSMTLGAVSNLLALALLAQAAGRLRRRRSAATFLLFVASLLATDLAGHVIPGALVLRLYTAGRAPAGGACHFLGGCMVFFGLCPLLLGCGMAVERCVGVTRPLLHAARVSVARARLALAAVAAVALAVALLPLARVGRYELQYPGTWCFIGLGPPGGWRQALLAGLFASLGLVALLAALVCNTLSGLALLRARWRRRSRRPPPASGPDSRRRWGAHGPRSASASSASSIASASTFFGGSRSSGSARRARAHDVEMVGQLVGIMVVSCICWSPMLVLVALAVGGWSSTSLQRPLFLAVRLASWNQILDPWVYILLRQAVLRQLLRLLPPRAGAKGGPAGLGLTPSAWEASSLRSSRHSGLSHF
# PROTOCOL_NOTES: Displacement of [3H]PGE2 from human recombinant EP1 receptor expressed in CHO cell membranes
OUTCOME_MEASURE: IC50 (nM)

CC(=O)Nc1cc(C(=O)O)cc(-n2c(C)ccc2-c2cc(F)ccc2OCc2ccc(F)cc2)c1 3.98
Cc1ccc(-c2cc(Br)ccc2OCc2ccc(F)cc2F)n1-c1cc(N)cc(C(=O)O)c1 0.501
CC(=O)Nc1cc(C(=O)O)cc(-n2c(C)ccc2-c2cc(C(F)(F)F)ccc2OCc2ccccc2)c1 1.26
COC(=O)Nc1cc(C(=O)O)cc(-n2c(C)ccc2-c2cc(Cl)ccc2OCc2ccccc2)c1 5.01

1: CC(=O)Nc1cc(C(=O)O)cc(-n2c(C)ccc2-c2cc(I)ccc2OCc2ccc(F)cc2F)c1
2: Cc1ccc(-c2cc(Cl)ccc2OCc2ccc(F)cc2F)n1-c1cc(C(=O)O)cc(C(F)(F)F)c1
Asked: // compare measured IC50, left 1 , right 2 , return larger Answer by stating the label of the chosen item.
Given back: 2

P: Cc1ccc(-c2cc(Cl)ccc2OCc2ccc(F)cc2)n1-c1cc(C(=O)O)ccc1Cl
Q: Cc1ccc(-c2cc(Br)ccc2OCc2ccc(F)cc2F)n1-c1cc(C(=O)O)cc(N2CCCC2=O)c1
Asked: Would you mind telling me which has the lower recorded IC50 between P and Q ? Answer by stating the label of the chosen item.
Given back: Q
